- target_or_test_system: T1, NPR-B (natriuretic peptide receptor B), murine, expressed endogenously on NIH3T3 cells (murine, UniProt Q6VVW5 17-1047)
- T1 sequence (looked up): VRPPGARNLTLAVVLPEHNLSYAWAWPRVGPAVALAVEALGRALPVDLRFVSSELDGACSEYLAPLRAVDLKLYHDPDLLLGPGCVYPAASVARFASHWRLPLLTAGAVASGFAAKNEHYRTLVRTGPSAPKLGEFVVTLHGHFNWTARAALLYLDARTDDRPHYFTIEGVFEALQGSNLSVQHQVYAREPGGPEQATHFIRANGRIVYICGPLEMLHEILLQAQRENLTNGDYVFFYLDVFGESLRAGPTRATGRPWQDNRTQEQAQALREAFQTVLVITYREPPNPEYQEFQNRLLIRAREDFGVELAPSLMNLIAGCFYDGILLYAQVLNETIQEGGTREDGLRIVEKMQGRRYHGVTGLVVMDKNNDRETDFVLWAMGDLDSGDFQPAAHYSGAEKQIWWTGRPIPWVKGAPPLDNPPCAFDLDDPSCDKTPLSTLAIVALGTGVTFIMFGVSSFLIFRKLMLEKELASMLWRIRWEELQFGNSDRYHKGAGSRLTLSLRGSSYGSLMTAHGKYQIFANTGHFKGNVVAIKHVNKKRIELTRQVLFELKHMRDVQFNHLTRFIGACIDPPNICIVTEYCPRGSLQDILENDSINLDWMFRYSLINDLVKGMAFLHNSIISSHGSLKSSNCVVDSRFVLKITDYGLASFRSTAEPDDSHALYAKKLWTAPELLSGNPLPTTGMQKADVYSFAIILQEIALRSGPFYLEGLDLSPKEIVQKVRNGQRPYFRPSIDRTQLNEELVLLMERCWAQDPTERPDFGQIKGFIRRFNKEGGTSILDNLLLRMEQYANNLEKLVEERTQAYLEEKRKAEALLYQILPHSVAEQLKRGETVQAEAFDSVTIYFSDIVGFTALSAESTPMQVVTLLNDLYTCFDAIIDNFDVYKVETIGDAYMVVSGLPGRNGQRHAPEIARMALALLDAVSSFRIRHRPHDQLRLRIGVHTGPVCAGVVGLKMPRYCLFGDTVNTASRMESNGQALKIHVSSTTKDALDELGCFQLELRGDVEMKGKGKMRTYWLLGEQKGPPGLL
- measurement_description: cell-based or functional assay
Where no end group is shown, it is not given here. [ ]: non-standard residue; d: D form. Cit = NC(=O)NCCC[C@H](N)C(=O)O
measured_metric: cGMP response rel. to 1 uM CNP22; 10 nM peptide, NIH3T3 cells

Past entries and their recorded results:
GLSRGCFGLSLDRIGSMSGLGC [CNP22, K4R, K10S] : 16 rel. to 1 uM CNP22 (100)
GLSRGCFGTKLDRIGSMSGLGC [CNP22, K4R, L9T] : 4 rel. to 1 uM CNP22 (100)
GLSRGCFGLKLDRI[Cit]SMSGLGC (ends and bridges not checked) [CNP22, K4R, G15Cit] : 1.4 rel. to 1 uM CNP22 (100)

// for each binder in input: emit cGMP response rel. to 1 uM CNP22; 10 nM peptide, NIH3T3 cells
1. GLSRGCFGLKLDRIGSMSRLGC [CNP22, K4R, G19R]
2. GLSRGCFGLKLDRIGSMSGLTC [CNP22, K4R, G21T]
3. GLSRGCYGLKLDRIGSMSGLGC (ends and bridges not checked; cysteine pairing not given here) [CNP22, K4R, F7Y]
4. GLSRGCFGLKLDRIGSMSGLGC [CNP22, K4R]

[reply]
["22 rel. to 1 uM CNP22 (100)", "6 rel. to 1 uM CNP22 (100)", "2 rel. to 1 uM CNP22 (100)", "59 rel. to 1 uM CNP22 (100)"]
